Please respond with reported absorbance at 450 nm for every item in the list.
System Under Test: T1, Monkey 4-1BB extracellular region recombinant protein (his-tag) (monkey)
T1 construct: extracellular domain; also called Monkey4-1BB, his-tag
Test Summary: ELISA, coated monkey 4-1BB-his 200 ng/well; antibody 10.0 µg/ml
One number for each entry.

# batch size: 3; output absorbance at 450 nm per entry
1. 137-39 VHH-hFc recombinant antibody (Fc fusion, VHH fragment inserted into vector pFclG with human IgG1 Fc tag, expressed in HEK293F; Preparation had non-specific bands, purity about 30%; not shown: human IgG1 Fc tag of the eukaryotic expression vector pFclG) QVQLVESGGGLVHVGESLTLSCVISGGSSNLYGIGWYRQAPGQERKLVAVLHNEHTTKYLDSVKGRFFVSGDNAKNTLYLHMNNVKVEDTAVYYCNSASGTLAGTGYFASVGPWGQGTLVTVSS
2. 137-12 VHH-hFc recombinant antibody (Fc fusion, VHH fragment inserted into vector pFclG with human IgG1 Fc tag, expressed in HEK293F; not shown: human IgG1 Fc tag of the eukaryotic expression vector pFclG) QVQLVESGGGLVHPGGSLRLSCAASGFTLDDSAIGWFRQAPGKEREGVSCRSRSGYMTKYADSVKGRFTISRYNANNTMYLQMNSLKPEDTAVYYCATTRRGYCSGYETKGVDYWGQGIQVTVSS
3. 137-36 VHH-hFc recombinant antibody (Fc fusion, VHH fragment inserted into vector pFclG with human IgG1 Fc tag, expressed in HEK293F; not shown: human IgG1 Fc tag of the eukaryotic expression vector pFclG) QVQLVESGGGLVQTGGSLTLSCVASGRRFEAYTIGWLRQAPGDLREGVGCIFGGTTFTGYDDSVKGRFTISRDTAKNTVYLRMNNLTSEDTATYYCAAEGRPGQIKGQHGCLTPSWYNYKGQGTQVTVSS

RESULT:
1. 0.405
2. 1.07
3. 1.91

QUERY: Quick one: give measured absorbance at 450 nm for 137-18 VHH-hFc recombinant antibody (Fc fusion, VHH fragment inserted into vector pFclG with human IgG1 Fc tag, expressed in HEK293F; also called CD137-18; not shown: human IgG1 Fc tag of the eukaryotic expression vector pFclG) QVQLVESGGGLVHPGGSLRLSCAASGFIFSLYTMSWVRQAPGKGLEWVSDINSGGDSTDYADSVKGRFTISRDNAKSTLYLQMNSLKPEDTAVYYCAKDYPLGQREDYWGQGTQVTVSS
RESULT: 3.3
